Data provenance: patent US6339042B1

Give phytotoxicity rating GALAP for every item shown.
Test system: Galium aparine
PROTOCOL_DESCRIPTION: Post-emergence herbicidal evaluation, GALAP
EXPERIMENTAL_SETUP: 0.200 kg/ha, three weeks after treatment

Lookup: Form field: phytotoxicity rating GALAP recorded for CC1=CC(N(C)C(=O)COc2nnc(C(F)(F)C(F)(F)F)s2)=CC(C)(C)C1 with Galium aparine (enter value)
Found: 3 (3 - Moderate effect)

Lookup: What would you report for CC1=CC(N(C(=O)COc2nc3ccccc3o2)C(C)C)=CC(C)(C)C1 ?
Found: 3 (3 - Moderate effect)

Lookup: Repeat with CC1=CC(N(C(=O)COc2nnc(C(F)(F)F)s2)C(C)C)=CC(C)(C)C1
Found: 0 (0 - No effect)

Lookup: Same read-out for CCc1nnc(OCC(=O)N(CC)C2=CC(C)(C)CC(C)=C2)s1 ?
Found: 0 (0 - No effect)

Lookup: Now the same for CC1=CC(N(C)C(=O)COc2nc3ccccc3o2)=CC(C)(C)C1
Found: 3 (3 - Moderate effect)

Lookup: Now consider CCN(C(=O)COc1nc2ccccc2o1)C1=CC(C)(C)CC(C)=C1 .
Found: 2 (2 - Slight effect)

Lookup: Note, next up: CCN(C(=O)COc1nnc(C(F)(F)C(F)(F)F)s1)C1=CC(C)(C)CC(C)=C1
Found: 0 (0 - No effect)

Lookup: Can you check CCc1nnc(OCC(=O)N(C2=CC(C)(C)CC(C)=C2)C(C)C)s1 next?
Found: 0 (0 - No effect)

Lookup: Follow-up item: CC1=CC(N(C)C(=O)COc2nnc(C(F)(F)F)s2)=CC(C)(C)C1
Found: 4 (4 - Injury)

Lookup: Now give it for CCN(C(=O)COc1nnc(C(F)(F)F)s1)C1=CC(C)(C)CC(C)=C1 too.
Found: 0 (0 - No effect)

Lookup: Query CCc1nnc(OCC(=O)N(C)C2=CC(C)(C)CC(C)=C2)s1 next
Found: 0 (0 - No effect)

* * *

Test system: Setaria viridis
PROTOCOL_DESCRIPTION: Pre-emergence herbicidal evaluation, SETVI
Assay type: in vivo
EXPERIMENTAL_SETUP: 0.800 kg/ha, three weeks after treatment
Hi there, I'd appreciate the recorded phytotoxicity rating SETVI for every entry that follows.

Lookup: Requested field: phytotoxicity rating SETVI. Item: CCc1nnc(OCC(=O)N(CC)C2=CC(C)(C)CC(C)=C2)s1
Found: 9 (9 - Complete kill)

Lookup: Then this compound: CC1=CC(N(C)C(=O)COc2nc3ccccc3o2)=CC(C)(C)C1
Found: 9 (9 - Complete kill)

Lookup: Try this compound next: CCN(C(=O)COc1nnc(C(F)(F)F)s1)C1=CC(C)(C)CC(C)=C1
Found: 8 (8 - Approaching complete kill)

Lookup: Now consider CC1=CC(N(C(=O)COc2nnc(C(F)(F)F)s2)C(C)C)=CC(C)(C)C1 and answer again.
Found: 9 (9 - Complete kill)

Lookup: Consider next the compound CC1=CC(N(C(=O)COc2nc3ccccc3o2)C(C)C)=CC(C)(C)C1 in the same way.
Found: 8 (8 - Approaching complete kill)

Lookup: Thanks! And CC1=CC(N(C)C(=O)COc2nnc(C(F)(F)C(F)(F)F)s2)=CC(C)(C)C1 ?
Found: 2 (2 - Slight effect)

Lookup: Could you do the same for CCN(C(=O)COc1nnc(C(F)(F)C(F)(F)F)s1)C1=CC(C)(C)CC(C)=C1 , please?
Found: 7 (7 - Good herbicidal effect)

Lookup: Repeat for the following compound: CC1=CC(N(C)C(=O)COc2nnc(C(F)(F)F)s2)=CC(C)(C)C1
Found: 9 (9 - Complete kill)

Lookup: Field entry: CCN(C(=O)COc1nc2ccccc2o1)C1=CC(C)(C)CC(C)=C1
Found: 8 (8 - Approaching complete kill)

Lookup: # repeat for CCc1nnc(OCC(=O)N(C)C2=CC(C)(C)CC(C)=C2)s1
Found: 9 (9 - Complete kill)

Lookup: What do we get for CCc1nnc(OCC(=O)N(C2=CC(C)(C)CC(C)=C2)C(C)C)s1 ?
Found: 9 (9 - Complete kill)

* * *

System: Oryza sativum
PROTOCOL_DESCRIPTION: Pre-emergence herbicidal evaluation, ORYSA
Type: in vivo
EXPERIMENTAL_SETUP: 0.200 kg/ha, three weeks after treatment
I'd appreciate it if you could supply phytotoxicity rating ORYSA values for the items below.

Lookup: phytotoxicity rating ORYSA of CC1=CC(N(C(=O)COc2nnc(C(F)(F)F)s2)C(C)C)=CC(C)(C)C1 on Oryza sativum?
Found: 4 (4 - Injury)

Lookup: // next record CCN(C(=O)COc1nnc(C(F)(F)C(F)(F)F)s1)C1=CC(C)(C)CC(C)=C1
Found: 0 (0 - No effect)

Lookup: Proceed to CC1=CC(N(C(=O)COc2nc3ccccc3o2)C(C)C)=CC(C)(C)C1
Found: 3 (3 - Moderate effect)

Lookup: Please answer likewise for CCN(C(=O)COc1nnc(C(F)(F)F)s1)C1=CC(C)(C)CC(C)=C1
Found: 0 (0 - No effect)

Lookup: What would you report for CC1=CC(N(C)C(=O)COc2nc3ccccc3o2)=CC(C)(C)C1 ?
Found: 0 (0 - No effect)

Lookup: Please do the same for CCc1nnc(OCC(=O)N(CC)C2=CC(C)(C)CC(C)=C2)s1 as well.
Found: 0 (0 - No effect)

Lookup: And for CCc1nnc(OCC(=O)N(C2=CC(C)(C)CC(C)=C2)C(C)C)s1 ?
Found: 1 (1 - Trace effect)

Lookup: Next compound up: CCN(C(=O)COc1nc2ccccc2o1)C1=CC(C)(C)CC(C)=C1
Found: 0 (0 - No effect)

Lookup: Same question, CC1=CC(N(C)C(=O)COc2nnc(C(F)(F)C(F)(F)F)s2)=CC(C)(C)C1 this time
Found: 0 (0 - No effect)

Lookup: Likewise for CC1=CC(N(C)C(=O)COc2nnc(C(F)(F)F)s2)=CC(C)(C)C1 ?
Found: 3 (3 - Moderate effect)

Lookup: How about CCc1nnc(OCC(=O)N(C)C2=CC(C)(C)CC(C)=C2)s1 ?
Found: 2 (2 - Slight effect)

* * *

Test system: Galium aparine
PROTOCOL_DESCRIPTION: Pre-emergence herbicidal evaluation, GALAP
Format: in vivo
EXPERIMENTAL_SETUP: 0.400 kg/ha, three weeks after treatment
Text: The treated pots are then placed on greenhouse benches, watered and cared for in accordance with conventional greenhouse procedures.
MEASURE: phytotoxicity rating GALAP

Lookup: So what does the record say about phytotoxicity rating GALAP for CCN(C(=O)COc1nc2ccccc2o1)C1=CC(C)(C)CC(C)=C1 ?
Found: 0 (0 - No effect)

Lookup: Follow-up entry: CC1=CC(N(C(=O)COc2nc3ccccc3o2)C(C)C)=CC(C)(C)C1
Found: 0 (0 - No effect)

Lookup: Repeat with CCN(C(=O)COc1nnc(C(F)(F)F)s1)C1=CC(C)(C)CC(C)=C1
Found: 4 (4 - Injury)

Lookup: CC1=CC(N(C(=O)COc2nnc(C(F)(F)F)s2)C(C)C)=CC(C)(C)C1 ?
Found: 2 (2 - Slight effect)

* * *

System: Oryza sativum
PROTOCOL_DESCRIPTION: Post-emergence herbicidal evaluation, ORYSA
EXPERIMENTAL_SETUP: 0.400 kg/ha, three weeks after treatment
MEASURE: phytotoxicity rating ORYSA

Lookup: Query: phytotoxicity rating ORYSA; subject: CC1=CC(N(C(=O)COc2nnc(C(F)(F)F)s2)C(C)C)=CC(C)(C)C1 [Example 4]
Found: 1 (1 - Trace effect)

Lookup: Input CC1=CC(N(C)C(=O)COc2nc3ccccc3o2)=CC(C)(C)C1 [Example 16]
Found: 2 (2 - Slight effect)

Lookup: Would you kindly repeat that for CCN(C(=O)COc1nc2ccccc2o1)C1=CC(C)(C)CC(C)=C1 [Example 2] ?
Found: 1 (1 - Trace effect)

Lookup: And then CCN(C(=O)COc1nnc(C(F)(F)C(F)(F)F)s1)C1=CC(C)(C)CC(C)=C1 [Example 8] , what is it?
Found: 2 (2 - Slight effect)

Lookup: Try CC1=CC(N(C(=O)COc2nc3ccccc3o2)C(C)C)=CC(C)(C)C1 [Example 17] next.
Found: 4 (4 - Injury)

Lookup: Subsequent entry: CCc1nnc(OCC(=O)N(CC)C2=CC(C)(C)CC(C)=C2)s1 [Example 6]
Found: 2 (2 - Slight effect)

Lookup: Follow-up entry: CCc1nnc(OCC(=O)N(C2=CC(C)(C)CC(C)=C2)C(C)C)s1 [Example 11]
Found: 2 (2 - Slight effect)

Lookup: Entry CCN(C(=O)COc1nnc(C(F)(F)F)s1)C1=CC(C)(C)CC(C)=C1 [Example 1] please
Found: 3 (3 - Moderate effect)

Lookup: Would you mind doing CC1=CC(N(C)C(=O)COc2nnc(C(F)(F)C(F)(F)F)s2)=CC(C)(C)C1 [Example 7] as well?
Found: 3 (3 - Moderate effect)

Lookup: Same lookup for CC1=CC(N(C)C(=O)COc2nnc(C(F)(F)F)s2)=CC(C)(C)C1 [Example 3] , please.
Found: 2 (2 - Slight effect)

Lookup: Ok, now CCc1nnc(OCC(=O)N(C)C2=CC(C)(C)CC(C)=C2)s1 [Example 5]
Found: 1 (1 - Trace effect)
